Recorded values, source the SangsterLogP compilation.

Listing: logP of selected compounds
Just the number, please, no unit attached.

Below, 5 compounds whose answers are already recorded.
O=C(O)c1ccccc1-n1cccc1; 2.04
O=C(O)C(Cc1ccc(Cl)cc1)n1cccc1 (stereo not given); 2.08
O=C(O)C(Cc1ccc(F)cc1)n1cccc1 (stereo not given); 2.04
O=C(O)C(c1ccccc1F)n1cccc1 (stereo not given); 2.49
O=C(O)Cn1cccc1; 0.7

Q: What value of logP has been reported for the following compound? O=C(O)Cc1ccc(-n2cccc2)cc1
Result: 0.76

Q: What value of logP has been reported for the following compound? O=C(O)C(c1ccccc1)n1cccc1 (stereo not given)
Result: 1.57

Q: What value of logP has been reported for the following compound? O=C(O)C(Cc1ccccc1)n1cccc1 (stereo not given)
Result: 2.34

Q: What value of logP has been reported for the following compound? O=C(O)C(Cc1ccc(O)cc1)n1cccc1 (stereo not given)
Result: 1.56

Q: What value of logP has been reported for the following compound? O=C(O)C(c1ccc(Cl)cc1)n1cccc1 (stereo not given)
Result: 2.3
